Listed molecules paired with reported pKi
molecular target: Human immunodeficiency virus type 1 protease (Human immunodeficiency virus 1, UniProt Q72874)
Scale note: pKi = -log10(concentration in M).

INSERT INTO assay_data (compoundstructurestring, outcomemeasure, datavalue) VALUES
  ('O=C1N(Cc2ccccc2)[C@H](Cc2ccc(O)cc2)[C@H](O)[C@@H](O)[C@@H](Cc2ccc(O)cc2)N1Cc1ccccc1', 'pKi', 8.96),
  ('CS(=O)(=O)c1ccc(C[C@@H]2[C@H](O)[C@@H](O)[C@@H](Cc3ccc(S(C)(=O)=O)cc3)N(Cc3ccccc3)C(=O)N2Cc2ccccc2)cc1', 'pKi', 8.60),
  ('CC(C)C[C@@H]1[C@H](O)[C@@H](O)[C@@H](CC(C)C)N(Cc2ccccc2)C(=O)N1Cc1ccccc1', 'pKi', 5.77),
  ('COc1ccc(C[C@@H]2[C@H](O)[C@@H](O)[C@@H](Cc3ccc(OC)cc3)N(Cc3ccc(CO)cc3)C(=O)N2Cc2ccc(CO)cc2)cc1', 'pKi', 9.62),
  ('Cc1ccc(C)n1-c1cccc(C[C@@H]2[C@H](O)[C@@H](O)[C@@H](Cc3cccc(-n4c(C)ccc4C)c3)N(Cc3ccccc3)C(=O)N2Cc2ccccc2)c1', 'pKi', 6.80),
  ('O=C1N(Cc2ccccc2)[C@H](Cc2c[nH]c3ccccc23)[C@H](O)[C@@H](O)[C@@H](Cc2c[nH]c3ccccc23)N1Cc1ccccc1', 'pKi', 6.24);

Sample O=C1N(Cc2ccc(CO)cc2)[C@H](Cc2ccc(F)cc2)[C@H](O)[C@@H](O)[C@@H](Cc2ccc(F)cc2)N1Cc1ccc(CO)cc1 ; pKi observed: 9.36

So for O=C1N(Cc2ccccc2)[C@H](Cc2ccccc2O)[C@H](O)[C@@H](O)[C@@H](Cc2ccccc2O)N1Cc1ccccc1 , the logged pKi turned out to be 7.46

pKi recorded for this molecule, O=C1N(CC2CC2)[C@H](Cc2cccc(O)c2)[C@H](O)[C@@H](O)[C@@H](Cc2cccc(O)c2)N1CC1CC1 , is 7.89
